- tested-system: human FXR (NR1H4) (Homo sapiens, UniProt Q96RI1)
- Construct: host or cells: CHO (Chinese hamster ovary) reporter cells
- Sequence (Q96RI1 whole entry): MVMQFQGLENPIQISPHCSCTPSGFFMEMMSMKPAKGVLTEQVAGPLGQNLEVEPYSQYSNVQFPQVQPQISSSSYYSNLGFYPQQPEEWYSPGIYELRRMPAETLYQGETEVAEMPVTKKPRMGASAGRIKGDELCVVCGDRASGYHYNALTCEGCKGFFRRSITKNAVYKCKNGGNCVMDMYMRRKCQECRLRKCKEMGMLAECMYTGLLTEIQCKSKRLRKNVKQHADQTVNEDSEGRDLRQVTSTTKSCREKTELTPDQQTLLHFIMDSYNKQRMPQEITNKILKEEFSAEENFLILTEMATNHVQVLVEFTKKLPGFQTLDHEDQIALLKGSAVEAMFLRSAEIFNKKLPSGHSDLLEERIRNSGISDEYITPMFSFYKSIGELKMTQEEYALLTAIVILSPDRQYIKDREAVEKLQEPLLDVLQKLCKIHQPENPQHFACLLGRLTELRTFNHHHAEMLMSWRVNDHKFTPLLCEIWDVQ
- test-method-notes: Human FXR (NR1H4) Assay: Gal4 promoter driven luciferase reporter transactivation in CHO cells (Indigo Bioscience kit IB00601); also: efficacy normalized to CDCA set as 100%
- Assay type: cell-based
- measurement-conditions: CHO; read-out: Efficacy (%)
Emax values, listed per item
reported-property: Emax

• CC(C)Oc1cc(C(=O)NS(=O)(=O)C2(C)CC2)cc2sc(N3CCC(NCc4c(-c5ccccc5OC(F)(F)F)noc4C4CC4)CC3)nc12 = 112%
• O=C(O)c1cc(F)c2nc(N3C4CCC3CC(NCc3c(-c5ccccc5OC(F)(F)F)noc3C3CC3)C4)sc2c1 (stereo not drawn) = 88%
• O=C(O)c1cc2sc(N3C4CCC3CC(NCc3c(-c5c(Cl)cccc5Cl)noc3C3CC3)C4)nc2c2ccccc12 (stereo not drawn) = 132%
• CN(C)S(=O)(=O)NC(=O)c1ccc2nc(N3C4CCC3CN(Cc3c(-c5c(Cl)cccc5Cl)noc3C3CC3)C4)sc2c1 = 242%
• CC1(S(=O)(=O)NC(=O)c2cc(C3CC3)c3nc(N4C5CCC4CC(NCc4c(-c6c(Cl)cccc6Cl)noc4C4CC4)C5)sc3c2)CC1 (stereo not drawn) = 117%
• CC(C)S(=O)(=O)NC(=O)c1ccc2nc(N3C4CCC3CC(NCc3c(-c5c(Cl)cccc5Cl)noc3C3CC3)C4)sc2c1 (stereo not drawn) = 226%

* * *

- tested-system: human FXR (NR1H4) (Homo sapiens, UniProt Q96RI1)
- Construct: host or cells: CHO (Chinese hamster ovary) reporter cells
- test-method-notes: Human FXR (NR1H4) Assay: Gal4 promoter driven luciferase reporter transactivation in CHO cells (Indigo Bioscience kit IB00601); also: efficacy normalized to CDCA set as 100%
- Type: cell-based
- measurement-conditions: CHO; read-out: Efficacy (%)
Emax listing for selected compounds.
reported-property: Emax (%)

- O=C(O)c1cc(F)c(N2C3CCC2CC(NCc2c(-c4ccccc4OC(F)(F)F)noc2C2CC2)C3)c(F)c1 (centres unmarked): 105
- CN(C)S(=O)(=O)NC(=O)c1cc(F)c2nc(N3C4CCC3CC(NCc3c(-c5c(Cl)cccc5Cl)noc3C3CC3)C4)sc2c1 (centres unmarked): 150
- Cc1cc(C(=O)NS(=O)(=O)C2(C)CC2)cc2sc(N3C4CCC3CC(NCc3c(-c5c(Cl)cccc5Cl)noc3C3CC3)C4)nc12 (centres unmarked): 118
- O=C(O)c1cc(F)c2nc(N3[C@@H]4CC[C@H]3C[C@@H](NCc3c(-c5c(Cl)cccc5Cl)noc3C3CC3)C4)sc2c1: 169
- CC(C)Oc1cc(C(=O)NS(=O)(=O)N2CCCCC2)cc2sc(N3CCC(NCc4c(-c5c(Cl)cccc5Cl)noc4C4CC4)CC3)nc12: 73.5
- O=C(O)c1cc(C2CC2)c2nc(N3C4CCC3CC(NCc3c(-c5c(F)cccc5F)noc3C3CC3)C4)sc2c1 (centres unmarked): 107
- COC(=O)c1cc2sc(N3C4CCC3CC(NCc3c(-c5c(Cl)cccc5Cl)noc3C3CC3)C4)nc2cc1F (centres unmarked): 75.8
- CCOc1cc(C(=O)OC)cc2sc(N3C4CCC3CC(NCc3c(-c5c(Cl)cccc5Cl)noc3C3CC3)C4)nc12 (centres unmarked): 81
- COC(=O)c1cc(F)c2nc(N3CCC(NCc4c(-c5c(Cl)cccc5Cl)noc4C4CC4)CC3)sc2c1: 72
- COC(=O)c1cc2sc(N3C4CCC3CC(NCc3c(-c5c(Cl)cccc5Cl)noc3C3CC3)C4)nc2cc1Br (centres unmarked): 50.5
- O=C(NS(=O)(=O)N1CCOCC1)c1ccc2nc(N3C4CCC3CC(NCc3c(-c5c(Cl)cccc5Cl)noc3C3CC3)C4)sc2c1 (centres unmarked): 146
- O=C(O)c1cc(C2CC2)c2nc(N3C4CCC3CC(NCc3c(-c5ccccc5OC(F)(F)F)noc3C3CC3)C4)sc2c1 (centres unmarked): 94.5
- [2H]C([2H])([2H])C1(S(=O)(=O)NC(=O)c2cc(F)c3nc(N4C5CCC4CC(NCc4c(-c6c(Cl)cccc6Cl)noc4C4CC4)C5)sc3c2)CC1 (centres unmarked): 184
- O=C(O)c1ccc2nc(N3[C@@H]4CC[C@H]3C[C@@H](NCc3c(-c5c(Cl)cccc5Cl)noc3C3CC3)C4)sc2c1: 244
- Cc1cc2nc(N3C4CCC3CC(NCc3c(-c5c(Cl)cccc5Cl)noc3C3CC3)C4)sc2cc1C(=O)NS(=O)(=O)C1(C)CC1 (centres unmarked): 79.3
- O=C(O)c1ccc2nc(N3C4CCC3CC(NCc3c(-c5c(F)cccc5F)noc3C3CC3)C4)sc2c1 (centres unmarked): 94.7
- CC1(S(=O)(=O)NC(=O)c2ccc3nc(N4C5CCC4CC(NCc4c(-c6c(Cl)cccc6Cl)noc4C4CC4)C5)oc3c2)CC1 (centres unmarked): 62
- CC(C)Oc1cc(C(=O)NS(=O)(=O)C2(C)CC2)cc2sc(N3C4CCC3CC(NCc3c(-c5c(Cl)cccc5Cl)noc3C3CC3)C4)nc12 (centres unmarked): 98
- COC(=O)c1cc(OC(C)C)c2nc(N3C4CCC3CC(NCc3c(-c5ccccc5C(F)(F)F)noc3C3CC3)C4)sc2c1 (centres unmarked): 119
- COC(=O)c1cc(OC(C)C)c2nc(N3C4CCC3CC(NCc3c(-c5c(Cl)cccc5Cl)noc3C3CC3)C4)sc2c1 (centres unmarked): 96
- CC1(S(=O)(=O)NC(=O)c2ccc3nc(N4C5CCC4CC(NCc4c(-c6c(Cl)cccc6Cl)noc4C4CC4)C5)sc3c2)CC1 (centres unmarked): 279
- COc1cc(C(=O)NCC(=O)O)cc2sc(N3C4CCC3CC(NCc3c(-c5c(Cl)cccc5Cl)noc3C3CC3)C4)nc12 (centres unmarked): 75
- CC1(S(=O)(=O)NC(=O)c2cc(F)c(N3C4CCC3CC(NCc3c(-c5ccccc5OC(F)(F)F)noc3C3CC3)C4)c(F)c2)CC1 (centres unmarked): 67
- O=C(NS(=O)(=O)N1CCCCC1)c1cc(OC(F)F)c2nc(N3C4CCC3CC(NCc3c(-c5c(Cl)cccc5Cl)noc3C3CC3)C4)sc2c1 (centres unmarked): 146
- CCOC(=O)c1ccc2nc(NC3CCN(Cc4c(-c5c(Cl)cccc5Cl)noc4C4CC4)CC3)sc2c1: 119
- O=C(NS(=O)(=O)C1CC1)c1ccc(N2C3CCC2CC(NCc2c(-c4c(Cl)cccc4Cl)noc2C2CC2)C3)nc1 (centres unmarked): 82.5
